assay: NCI Yeast Anticancer Drug Screen. Data for the rad50 strain (AID 155);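 also: 0% = growth of vehicle-only cultures of the same strain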; conditions: S. cerevisiae rad50 strain growth inhibition; at 50.0 µM; stronger effect = higher value
The panel holds about 79,000 compounds, 15% with a hit somewhere; the sample as a whole holds those more often.
growth inhibition: recorded values
// units = %; emit number, no label

Consider the worked cases shown below.
INPUT: Reported growth inhibition for COc1ccc(/C=C2\N=C(N3CCOCC3)NC2=O)cc1 : what is it?
OUTPUT: -4.15

INPUT: Reported growth inhibition for CCOC(=O)c1c(-c2ccccc2)csc1NC(=O)CN1CCCCC1 : what is it?
OUTPUT: 28.6

INPUT: Reported growth inhibition for O=C(Nc1ccc(C(=O)O)cc1)OCc1ccccc1 : what is it?
OUTPUT: 1.65

INPUT: Reported growth inhibition for CC(O)(C(=O)O)c1ccccc1O (centres undefined) : what is it?
OUTPUT: -1.1

INPUT: Reported growth inhibition for Nc1nc(-c2ccc(S(=O)(=O)O)cc2)cc(=O)[nH]1 : what is it?
OUTPUT: -9.6

New cases:
INPUT: Reported growth inhibition for C/C=C1/CC(C)C(C)(O)C(=O)OCC2C(O)CN3CCC(OC1=O)C23 (centres undefined) : what is it?
OUTPUT: 12.4

INPUT: Reported growth inhibition for CC(C)(C)SC(=S)SCC(=O)c1cc2ccccc2o1 : what is it?
OUTPUT: 35.7

INPUT: Reported growth inhibition for N#CCOc1ccc(Cl)cc1 : what is it?
OUTPUT: -10.7

INPUT: Reported growth inhibition for COC(=O)CC(C)(O)CCCC(C)C (centres undefined) : what is it?
OUTPUT: 11.2

INPUT: Reported growth inhibition for CCOC(=S)SCc1ccc([N+](=O)[O-])cc1 : what is it?
OUTPUT: 69.8

INPUT: Reported growth inhibition for CN1CCN(CCCBr)CC1 : what is it?
OUTPUT: -8.85

INPUT: Reported growth inhibition for Cc1cc(Cl)ccc1-n1nc(C)c2c(N)nc(N)nc21 : what is it?
OUTPUT: 17.4

INPUT: Reported growth inhibition for CCCC(C(C)=O)C(C)=O : what is it?
OUTPUT: -7.8

INPUT: Reported growth inhibition for O=C1Sc2ccccc2C(=O)N2CCCC12 (centres undefined) : what is it?
OUTPUT: -20.8

INPUT: Reported growth inhibition for C(=C\C(Sc1ccccc1)c1ccccc1)/NNC1=NC(c2ccccc2)C(c2ccccc2)=NN1 (centres undefined) : what is it?
OUTPUT: -22.4

INPUT: Reported growth inhibition for CCCCCCCCCCCCOP(=O)(O)OP(=O)(O)OCC1OC(n2ccc(N)nc2=O)CC1O (centres undefined) : what is it?
OUTPUT: 27.9

INPUT: Reported growth inhibition for C[Si](C)(C)C#CCOC=C1CC1 : what is it?
OUTPUT: 26

INPUT: Reported growth inhibition for CCCCCC(O)(CCCC)CCCCC : what is it?
OUTPUT: -10.7

INPUT: Reported growth inhibition for C1C[OH+]CC[OH+]CCNCC[OH+]CC[OH+]CCN1.Cl.[Cl-].[Pt+4] : what is it?
OUTPUT: 8.7

From: PubChem BioAssay (NCI)
